# assayed target: recombinant mouse GALK1 (Mus musculus, UniProt Q9R0N0)
# Sequence (Q9R0N0 whole entry): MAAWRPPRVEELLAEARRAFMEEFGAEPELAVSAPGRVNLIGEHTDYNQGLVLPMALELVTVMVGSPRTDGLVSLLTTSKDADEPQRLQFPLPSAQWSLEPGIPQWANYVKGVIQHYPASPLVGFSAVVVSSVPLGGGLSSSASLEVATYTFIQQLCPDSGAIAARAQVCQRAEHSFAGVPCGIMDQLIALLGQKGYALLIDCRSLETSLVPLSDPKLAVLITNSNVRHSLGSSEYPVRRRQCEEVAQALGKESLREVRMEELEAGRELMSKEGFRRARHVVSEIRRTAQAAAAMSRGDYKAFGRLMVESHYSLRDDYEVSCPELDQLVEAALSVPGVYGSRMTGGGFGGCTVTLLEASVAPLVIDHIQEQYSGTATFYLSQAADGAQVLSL
# assay name: mGALK1 biochemical activity assay (Kinase-Glo Plus, ATP depletion)
# condition notes: recombinant mouse GALK1, Kinase-Glo Plus ATP depletion; read-out: mGALK
So basically: is IC50 under 10 µM? Then T. Not under? Then F.

{"molecule": "COc1ccc2nc(NC3=NC(c4ccccc4Cl)C(C(=O)Nc4nnc(-c5cccnc5)s4)=C(C)N3)oc2c1 (centres unmarked)", "assayed target": "recombinant mouse GALK1 (Mus musculus, UniProt Q9R0N0)", "label": "F"}
{"molecule": "COc1ccc2oc(NC3=NC(c4ccccc4Cl)C(C(=O)Nc4cc(C(=O)O)ccn4)=C(C)N3)nc2c1 (centres unmarked)", "assayed target": "recombinant mouse GALK1 (Mus musculus, UniProt Q9R0N0)", "label": "F"}
{"molecule": "COc1ccccc1CNC(=O)C1=C(C)NC(Nc2nc3ccccc3o2)=NC1c1ccccc1Cl (centres unmarked)", "assayed target": "recombinant mouse GALK1 (Mus musculus, UniProt Q9R0N0)", "label": "F"}
{"molecule": "CC1=C(C(=O)Nc2cc(C(=O)O)ccn2)C(c2ccc(C)cc2Cl)N=C(Nc2nc3c(o2)CCCC3)N1 (centres unmarked)", "assayed target": "recombinant mouse GALK1 (Mus musculus, UniProt Q9R0N0)", "label": "T"}
{"molecule": "CC1=C(C(=O)NCc2cnn(C)c2)C(c2ccc(Cl)cc2Cl)N=C(Nc2nc3ccc(F)c(N)c3o2)N1 (centres unmarked)", "assayed target": "recombinant mouse GALK1 (Mus musculus, UniProt Q9R0N0)", "label": "T"}
{"molecule": "CC1=C(C(=O)NCc2cnn(C)c2)C(c2ccc(C)cc2Cl)N=C(Nc2nc3ccc(F)c(C(=O)O)c3o2)N1 (centres unmarked)", "assayed target": "recombinant mouse GALK1 (Mus musculus, UniProt Q9R0N0)", "label": "F"}

Prompt: Given the entry CC1=C(C(=O)Nc2nnc(-c3cccnc3)s2)C(c2ccccc2Cl)N=C(Nc2nc3ccc(F)cc3o2)N1 (centres unmarked) , would its reported IC50 be below 10 µM?
Completion: F

Prompt: # TODO verify IC50 < 10 µM strictly for this molecule: COc1ccc([C@H]2N=C(Nc3nc4cccc(N)c4o3)NC(C)=C2C(=O)Nc2cc(C(=O)O)ccn2)c(Cl)c1
Completion: F

Prompt: Consider COC(=O)c1cnc(NC(=O)C2=C(C)NC(Nc3nc4ccccc4o3)=NC2c2ccccc2Cl)s1 (centres unmarked) . Does its IC50 lie strictly below 10 µM?
Completion: F

Prompt: Is IC50 of CC1=C(C(=O)Nc2cc(C(=O)O)ccc2Cl)C(c2ccccc2Cl)N=C(Nc2nc3ccc(F)cc3o2)N1 (centres unmarked) strictly below 10 µM?
Completion: F

Prompt: Is 10 µM strictly greater than the molecule's reported IC50? molecule: CC1=C(C(=O)Nc2cc(C(=O)O)ccn2)C(c2ccc(-c3ccc(C(F)(F)F)cc3)cc2Cl)N=C(Nc2nc3ccc(F)cc3o2)N1 (centres unmarked)
Completion: F

Prompt: Input CCn1ncc(CNC(=O)C2=C(C)NC(Nc3nc4ccc(F)c(N)c4o3)=NC2c2ccc(C)cc2Cl)c1F (centres unmarked) ; condition: IC50 strictly below 10 µM. Does it hold?
Completion: T

Prompt: IC50 under 10 µM? Item: CC1=C(C(=O)Nc2cccc(C(=O)O)c2)C(c2ccccc2Cl)N=C(Nc2nc3ccccc3o2)N1 (centres unmarked)
Completion: T

Prompt: Strictly below 10 µM in IC50? CC1=C(C(=O)Nc2cc(C#N)ccn2)C(c2ccccc2Cl)N=C(Nc2nc3ccc(F)cc3o2)N1 (centres unmarked)
Completion: T
